System: Hedgehog signaling pathway
Method: Gli luciferase reporter assay in Gli Reporter-NIH3T3 cells (mShh stimulated)
Assay type: cell-based
Condition label: mShh 1 μg/ml, 27 hours, read-out: IC50 for inhibition of the Hedgehog signaling pathway
Endpoint name: IC50 (nM)

Smiles: CC1=C2C(=O)[C@H]3[C@@H](CC=C4C[C@@H](O)CC[C@@]43C)[C@@H]2CC[C@]12O[C@@H]1C[C@H](C)CN[C@H]1[C@H]2C
Quantitative result: 50
